Assay: yeast display, Sf9 membrane polyspecificity reagent, FACS + sequencing; frameworks hold sequencing errors
MEASURED_ATTRIBUTE: polyreactivity (PSR sort gate)

- SEQUENCE_STRING: "QFQLVESGGGLVQAGGSLRLSCAASGFIFYKYAMGGYRQAPGKERELVAAISSGGSPYYADSVKGRFTISRDNAKNTVYLQMNSLKPEDTAVYYCNKVYRSYRSGFYGGDYWGQGTQVTVSS"
  READING: "high polyreactivity"
- SEQUENCE_STRING: "QVQLVESGGGLVHAGGSLRLSCAACGSIYKYNAMGWYRQAPGKERELVAAISYSGCSTYYSDSVNGRFTISRDNAKNTVYLQMNSLKPEDTAVYYCAKSPRASQYNMYDYWGQGTKVTVSS"
  READING: "high polyreactivity"
- SEQUENCE_STRING: "QVQLVESGGGLVQAGGSLRLSCAASGSTFQYYAMGWYRQAPGKERELVAAISYRGSTYYADSVKGRFTISRDNAKNTVYLQMNSLKPEDTAVYYCAAVNRPWYSFGYGYWGQGTQVTVSS"
  READING: "high polyreactivity"

----------
Experiment: yeast display, Sf9 membrane polyspecificity reagent, FACS + sequencing; frameworks hold sequencing errors
MEASURED_ATTRIBUTE: polyreactivity (PSR sort gate)

# count of solved cases: 10
- SEQUENCE_STRING: "QVQLVESGGGLDQAGGSLRLSCAASGFIFVRNAMGWYRQAPGKERELVAAITGRGGRTYYADSVKGRFTISRDNAKNTVYLQMNSLKPEDTAVYYCAKDSPDDHFGYWGQGTQVTVSS"
  polyreactivity (PSR sort gate): "high polyreactivity"
- SEQUENCE_STRING: "QVQLVESGGGLVQAGGSLRFSCAASGYIFYKYAMGWYRHAPGKERELVAAIRRSGGSTYYADSVKGRFTISRDNAKNTVYLQMNSLKPEDTAVYYCAARYFRGSYPMGYWGQGTQVTVSS"
  polyreactivity (PSR sort gate): "high polyreactivity"
- SEQUENCE_STRING: "QVQLVESGGGLVQAGGSLRLSCAASGRIFHSYAMGWYRQAPGKERELVAAISSGGNTYYADSVKGRFTISRDNAKNTVYLQMNSLKREDTAVYYCARDWDFLYDGFHSDSYEYWGQGTQVTVSS"
  polyreactivity (PSR sort gate): "low polyreactivity"
- SEQUENCE_STRING: "QVQLVESGGGLVQAGGSLRLSCAASGSTFRGFAMGWYRQAPGKERELVAAISSRGASTHYADSVKGRFTISRDNANNTVYLQLTSLKPEDTAVYYCNKRQVFVSTGVYEFDYWGQGTQVTVSS"
  polyreactivity (PSR sort gate): "low polyreactivity"
- SEQUENCE_STRING: "QVQLVESGGGLDQAGGSLRLSCAASGNIVYNGMGWYRQAPGKERELVAAIRGSGGRTYADSVKGRFTISRDNAKNTVYLQMNSLKPEDTAVYYCATRRWYAYGVYYWGQGTQVTVSS"
  polyreactivity (PSR sort gate): "high polyreactivity"
- SEQUENCE_STRING: "QVRLVESGGGLDQAGGSLRLSSAASGRIFNRNAMGWYRQAPGKARELVAAINRGGSTNYADSVKGRFTISRDNAKNTVYLQLNRLKPEDTAVYYCAAELLYATLWRRYSGYYYWGQGTQVTVSS"
  polyreactivity (PSR sort gate): "high polyreactivity"
- SEQUENCE_STRING: "QVQLVESGGGLVQAGGSLRLSCAASGNTFAYYAMGWYRQAPGKERELVAAISGSGGRTYYADSVKGRFTISRDNAKNTVYFQMNILKPEDTAVYYCNARPAGGLGYGYWGQGTQVTVSS"
  polyreactivity (PSR sort gate): "high polyreactivity"
- SEQUENCE_STRING: "QVLLQESGGGLVQAGVSLRLCCAASGYISGDQFMGWYRQAPGKEREFVAGIGNGTNTNYADSVKGRFTTSRDNAKNTVYLQMNSLKQEDTAVYYCAADPSDGSTLAYWGHGTQVTVSS"
  polyreactivity (PSR sort gate): "high polyreactivity"
- SEQUENCE_STRING: "QVQLVESGGGLVQAGGSLRLSCAASGLTSTDNAMGWYRQAPGKERELVAGITTGGSTYYADSVKGRFTISRDNAKNTVYLQMNSLKPEDTAVYYCNAPTYADTTYDYWGQGTQVTVSS"
  polyreactivity (PSR sort gate): "low polyreactivity"
- SEQUENCE_STRING: "QVQLVESGGGLVQAGGSLRLSCAASGSIYSYTMGWYRQAPGKEREFVAAITYSGDSTYYADSVKGRFTISRDNEKNTVYLQMNSLTPEDTAVYDCAAAGGRGSYYRLDYWGQGTQVTVSS"
  polyreactivity (PSR sort gate): "low polyreactivity"

// below: polyreactivity (PSR sort gate) requested for another sequence
Task: Note down polyreactivity (PSR sort gate) recorded for QVQLVESGGGLVQAGGSIRLSCAASGSTFKTYVMGWYRQAPGKERELVAAISFSDGTTYYADSVKGRFTISRDNAKNTVYLQMNSLKPEDTAVYYCAAEGYQSQYDYWGQGTQVTVSS
Output: high polyreactivity

----------
Assay: yeast display, Sf9 membrane polyspecificity reagent, FACS + sequencing; frameworks hold sequencing errors
MEASURED_ATTRIBUTE: polyreactivity (PSR sort gate)

Illustrative cases are given below, each with its answer.
- SEQUENCE_STRING: "QVQLVESGGGLVQAGGSLRLSCAASGSTFDDYTMGWYRQAPGKERELLAAISSDSSTNYADSVKGRFTISRDNAKNTVYLQMNSLKPEDTAVYYCATRSRTTKIVRWPGMYYWGQGTQVTVSS"
  polyreactivity (PSR sort gate): "high polyreactivity"
- SEQUENCE_STRING: "QVQLVESGGGLVQAGGSLRLSCAASGIIFYRYTMGWYRQAPGKERELVAAITSGGDTNYADSVKGRFTISRDNAKNTVYLQMNSLKPEDTAVYYCNADCWWYLYLYDFWGQGTQVTVSS"
  polyreactivity (PSR sort gate): "high polyreactivity"
- SEQUENCE_STRING: "QVQLVESGGGLVQAGGSLRLSCAASGYTFTVYAMGWYRQAPGKERELVAAITWNGASTYYADSVKARFTISRDNAKKTVYLQMNSLKPEDTAVYNCADPNYFYRDRSRLDYWGQGTQVTVSS"
  polyreactivity (PSR sort gate): "low polyreactivity"
- SEQUENCE_STRING: "QVQLVESGGRLVQAVGSLRLSCAASGFTSHKYAMGWYRQAPGKERELVAAITSSGGRTYYADSVKGRFTISRDNAKNTVYFQTNSLKPEDTAVYYCNKLGRVGDAREYWGQGTQVTVSS"
  polyreactivity (PSR sort gate): "high polyreactivity"
- SEQUENCE_STRING: "QVQLVESGGGLVQAGGSLSLSCAASGSIFDYYDMGWYRQSPGKERQLVAAITGSGGNTYYADSVKGRFTISRDNAKNTVYLQMNSLKPEDTAVYYCAAYGLYGAHTGYGSWGQCTQVTVSS"
  polyreactivity (PSR sort gate): "high polyreactivity"

Task: Input QVQLGESGGGLVQAGGSLRLSCAASGRTLSYYAMGWYRPAPGNDRELVAAISGSAGSTYYADSVKGRFTISRDNAKNTVYLQMNSLKPEDTAVYYCAAYIYSYDEGYYWGQGTQVTVSS , output reported polyreactivity (PSR sort gate).
Output: high polyreactivity

Task: Determine its reported polyreactivity (PSR sort gate): QVHLVESGGGLVQAGGSLRLSCAASGSTVYNAMGWYRQAPGKERELVAVITDSDGSTYYADSVKGRFTISRDNAKNTVYLQMNSLKPEDTAVYYCAVTAIALYYSSGYYWGQGTQVTVSS
Output: low polyreactivity

Task: Respond only with polyreactivity (PSR sort gate) recorded for QVQLVESGGGLVQAGGSLRLSCAASGRIFRRYAMGCYIQAPGKERELVAGITGSGTSTYYADSVKGRFTISRDNAKNTVYLQMNSLKPEDTAVYYCAADRGRGYRYNYWGQGTQVTVSS
Output: high polyreactivity

Task: Consider the sequence QVQLVESGGGLVQAGGSLRLSCAASGIIFPYYAMGWYIQAPGKERELVASISSRGSSTYYADSVKGRFTISRDNAKNTVFLQMNSLKPEDTAVYYSAAQNFYRYYWGQGTQVTVSS . State its measured polyreactivity (PSR sort gate).
Output: high polyreactivity

Task: Specify reported polyreactivity (PSR sort gate) for the sequence shown: QVQLVESGGGLVQAGGSLRLSCAASGFIFRRNAMGWYRQAPGKERELVAVISSRGGTYYADSVKGRFTISRDNAKNTVYLQMNSLKPEDTAVYYCAVDRGKYFPYRYDYWGQGTQVTVSS
Output: high polyreactivity

Task: Give polyreactivity (PSR sort gate) for the following sequence: QVQLVESGGGLVQAGGSLRLSCAASGSTFNVYAMGWYRQAPGKERDLVAAIDSGDSTNYADSVKGRFTISRDNAKNTVYLEMNSLKPEDTAVYYCAVGYWDSRYRYDWPNSDYWGQGTQVTVSS
Output: low polyreactivity
